# TARGET_UNDER_TEST: Protein deacetylase HDAC6 (Homo sapiens, UniProt Q9UBN7)
# Sequence (Q9UBN7 whole entry): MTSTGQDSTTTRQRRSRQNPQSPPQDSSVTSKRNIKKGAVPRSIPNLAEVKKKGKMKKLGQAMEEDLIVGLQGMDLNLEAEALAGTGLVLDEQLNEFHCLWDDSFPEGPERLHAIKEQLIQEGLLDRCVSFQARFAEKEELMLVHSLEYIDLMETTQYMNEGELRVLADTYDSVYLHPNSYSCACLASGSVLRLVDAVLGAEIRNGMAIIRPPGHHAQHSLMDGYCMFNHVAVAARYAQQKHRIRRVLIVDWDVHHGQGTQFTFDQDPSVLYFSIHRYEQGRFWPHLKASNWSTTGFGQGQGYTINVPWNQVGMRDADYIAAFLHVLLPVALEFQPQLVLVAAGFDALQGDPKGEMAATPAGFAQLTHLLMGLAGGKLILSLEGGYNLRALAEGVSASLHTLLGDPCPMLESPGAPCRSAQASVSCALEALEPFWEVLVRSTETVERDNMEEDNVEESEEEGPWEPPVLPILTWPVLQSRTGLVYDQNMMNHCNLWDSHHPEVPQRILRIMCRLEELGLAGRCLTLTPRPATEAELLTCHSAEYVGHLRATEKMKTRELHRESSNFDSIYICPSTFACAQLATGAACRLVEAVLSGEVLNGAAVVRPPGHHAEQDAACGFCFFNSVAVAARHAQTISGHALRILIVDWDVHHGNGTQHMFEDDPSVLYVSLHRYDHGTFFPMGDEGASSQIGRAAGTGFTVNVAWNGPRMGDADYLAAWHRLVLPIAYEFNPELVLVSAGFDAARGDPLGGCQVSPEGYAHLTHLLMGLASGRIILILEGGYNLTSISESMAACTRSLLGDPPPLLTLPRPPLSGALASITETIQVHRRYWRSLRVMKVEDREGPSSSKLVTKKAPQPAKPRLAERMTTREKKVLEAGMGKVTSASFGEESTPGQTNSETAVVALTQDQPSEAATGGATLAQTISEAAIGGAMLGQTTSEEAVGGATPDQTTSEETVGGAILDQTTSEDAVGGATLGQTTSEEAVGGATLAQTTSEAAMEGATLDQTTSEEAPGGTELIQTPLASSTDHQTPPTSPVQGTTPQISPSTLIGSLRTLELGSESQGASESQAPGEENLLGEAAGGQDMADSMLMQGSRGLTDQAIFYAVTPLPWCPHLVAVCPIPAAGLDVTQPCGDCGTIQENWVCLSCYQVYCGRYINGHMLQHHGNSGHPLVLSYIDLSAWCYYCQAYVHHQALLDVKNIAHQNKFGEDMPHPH
Multiple publications report IC50 for Protein deacetylase HDAC6 (Homo sapiens, UniProt Q9UBN7); what follows is a combined list.
# number only, unit nM dropped from output

{"COMPOUND": "O=C(NO)c1ccc(C(=O)Nc2ccccc2)cc1", "IC50 [nM]": 37}
{"COMPOUND": "Nc1cccc(-c2csc(NC(=O)CCCCCCC(=O)NO)n2)c1", "IC50 [nM]": 3}
{"COMPOUND": "O=C(CCCCCn1cc(-c2cccc(Nc3c4ccccc4nc4ccccc34)c2)nn1)NO", "IC50 [nM]": 3.4}
{"COMPOUND": "C[C@H](CCCCNS(N)(=O)=O)[C@H]1CC[C@H]2/C(=C/C=C3C[C@@H](O)C[C@H](O)C3)CCC[C@]12C", "IC50 [nM]": 50400}

Lab note: next compound to report on.
Report IC50 for "O=C(CS)NCCCCCOc1c(Cl)cc(Cl)c2cccnc12" tested on Protein deacetylase HDAC6 (Homo sapiens, UniProt Q9UBN7).
33.3
